- target under test: 2-oxoglutarate carrier (OGC) (Rattus norvegicus)
- Construct: native carrier purified from rat brain mitochondria, reconstituted into proteoliposomes
- Sequence (P97700 2-314): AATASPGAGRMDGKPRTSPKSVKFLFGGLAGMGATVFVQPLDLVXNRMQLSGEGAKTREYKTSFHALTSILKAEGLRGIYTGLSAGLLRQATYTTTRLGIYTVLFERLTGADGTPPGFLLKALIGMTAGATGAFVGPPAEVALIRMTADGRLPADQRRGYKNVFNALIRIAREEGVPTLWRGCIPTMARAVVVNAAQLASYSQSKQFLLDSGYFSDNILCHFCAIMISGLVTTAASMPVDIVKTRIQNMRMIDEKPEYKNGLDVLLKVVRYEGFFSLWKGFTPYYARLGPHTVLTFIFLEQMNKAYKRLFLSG
- run description: inhibition of […] 2-oxoglutarate or […] malate uptake in proteoliposomes reconstituted with purified OGC; Lineweaver-Burk and Dixon plots
observed property: IC50 (nM)
Express your answer in nM, writing the number without its unit.

q: Provide only the value of recorded IC50 for C=CC1=C(C)C2=Cc3c(C=C)c(C)c4[n]3[Fe]([Cl])[n]3c(c(C)c(CCC(=O)O)c3=CC3=NC(=C4)C(C)=C3CCC(=O)O)=CC1=N2 [hemin]
a: 1580

# credit: paper PMC8393474
